measurement.protocol: Evaluation of cell viability (MTS) in HepG2 2.2.15 cells
Assay type: cell-based, human
condition.set: human, HepG2 2.2.15 cells; Table 3; HBV virus yield assay
The entries below are paired with their reported CC50.

Recorded results for 3 molecules are shown here.
Lookup result for CCCCCCCCCCCC(=O)Nc1nc(Cl)nc2c1ccn2[C@@H]1O[C@H](CO)[C@@H](O)[C@@H]1F [Compound 12a] ; measured CC50: > 10 µM

The recorded CC50 for entry CCCCCCCCCCCCCCCCCC(=O)Nc1nc(Cl)nc2c1ccn2[C@@H]1O[C@H](CO)[C@@H](O)[C@@H]1F [Compound 12c] equals > 10 µM

According to the records, this molecule CCCC(CCC)C(=O)Nc1nc(Cl)nc2c1ccn2[C@@H]1O[C@H](CO)[C@@H](O)[C@@H]1F [Compound 12d] displays CC50 of > 10 µM

Moving on to the next molecule.
CCCCCCCC/C=C\CCCCCCCC(=O)Nc1nc(Cl)nc2c1ccn2[C@@H]1O[C@H](CO)[C@@H](O)[C@@H]1F [Compound 12b] has a reported CC50 of > 10 µM

----------
Recorded CC50 values for a group of compounds are listed next.
measurement.protocol: Evaluation of cell viability (MTS) in HepG2 2.2.15 cells
Format: cell-based, human
condition.set: human; Table 1; HepG2 2.2.15 cells

// field: CC50; key: Nc1ccn([C@@H]2CS[C@H](CO)O2)c(=O)n1 [Compound 3TC, Lamivudine, reference compound] ; value = > 2 µM

Attention now turns to another entry.
The reported value for Nc1nc(Cl)nc2c1ccn2[C@@H]1O[C@H](CO)[C@@H](O)[C@@H]1F in terms of CC50 is > 10 µM

----------
Tested on: HBV in HepG2 2.2.15 cells
measurement.protocol: HepG2 2.2.15 cell-based HBV replication assay (HBV virus yield, extracellular HBV DNA by real-time PCR)
Set-up: species or system HBV wild-type strain ayw1
condition.set: Hepatitis B virus, HepG2 2.2.15, Table 3; HBV virus yield assay; read-out: EC50
# label = yes (1) if EC50 < 80 nM else no (0)

[Q] Is it true that EC50 reported for CCCCCCCC/C=C\CCCCCCCC(=O)Nc1nc(Cl)nc2c1ccn2[C@@H]1O[C@H](CO)[C@@H](O)[C@@H]1F [Compound 12b] is less than 80 nM?
[A] no (0)

[Q] Please indicate whether the reported EC50 of Nc1ccn([C@@H]2CS[C@H](CO)O2)c(=O)n1 [Compound 3TC, Lamivudine, reference compound] is strictly below 80 nM.
[A] yes (1)

[Q] Determine whether this compound shows EC50 lower than 80 nM (ties excluded): Nc1nc(Cl)nc2c1ccn2[C@@H]1O[C@H](CO)[C@@H](O)[C@@H]1F
[A] yes (1)

[Q] API: query returns whether the compound falls strictly under 80 nM in EC50. Query: CCCC(CCC)C(=O)Nc1nc(Cl)nc2c1ccn2[C@@H]1O[C@H](CO)[C@@H](O)[C@@H]1F [Compound 12d]
[A] no (0)

[Q] Below 80 nM on EC50? Entry CCCCCCCCCCCCCCCCCC(=O)Nc1nc(Cl)nc2c1ccn2[C@@H]1O[C@H](CO)[C@@H](O)[C@@H]1F [Compound 12c]
[A] no (0)

----------
Below, each entry is listed with its recorded CC50.
measurement.protocol: Cytotoxicity (TC50) in Vero cells
Assay type: cell-based
condition.set: African green monkey, Table 2

Form: compound = Nc1nc(Cl)nc2c1ccn2[C@@H]1O[C@H](CO)[C@@H](O)[C@@H]1F [Compound 5] ; CC50 = > 10 µM

Consider the record given below.
Lookup result for Nc1nc2c(ncn2COCCO)c(=O)[nH]1 [Acyclovir, acyclovir, reference compound] ; measured CC50: > 100 µM

----------
Tested on: HSV-1 Strain HF
measurement.protocol: Antiviral activity against HSV-1 Strain HF in Vero cells
Format: cell-based
condition.set: Table 2
value.kind: IC50 (µM)
Give just the number in µM; leave the unit off.

// IC50 (HSV-1 Strain HF) for Nc1nc2c(ncn2COCCO)c(=O)[nH]1 [Acyclovir, acyclovir, reference compound] = 11.4

----------
CC50 values for the molecules below.
Test system: HepG2 2.2.15 cells
measurement.protocol: Evaluation of cell viability (MTS) in HepG2 2.2.15 cells
Format: cell-based, human
condition.set: Table 3; HBV virus yield assay
Experimental: The HepG2 2.2.15 cell line is a stable human hepatoblastoma cell line that contains two copies of the HBV wild-type strain ayw1 genome and constitutively produces high levels of HBV. Cells were sub-cultured twice a week in Dulbecco's Modified Eagle's Medium (DMEM) supplemented with 10% FBS, 380 μg/mL G418, 2.0 mM L-Glutamine, 100 units/mL Penicillin, and 100 μg/mL Streptomycin. […]

# molecule Nc1nc(Cl)nc2c1ccn2[C@@H]1O[C@H](CO)[C@@H](O)[C@@H]1F ; its CC50 = > 10 µM

API: the following record is the query input.
Lookup result for Nc1ccn([C@@H]2CS[C@H](CO)O2)c(=O)n1 [Compound 3TC, Lamivudine, reference compound] ; measured CC50: > 2 µM
